Target: T1, Rhesus-ICAM1 (rhesus, UniProt Q5NKV6 28-480, limits assumed)
T1 sequence (looked up): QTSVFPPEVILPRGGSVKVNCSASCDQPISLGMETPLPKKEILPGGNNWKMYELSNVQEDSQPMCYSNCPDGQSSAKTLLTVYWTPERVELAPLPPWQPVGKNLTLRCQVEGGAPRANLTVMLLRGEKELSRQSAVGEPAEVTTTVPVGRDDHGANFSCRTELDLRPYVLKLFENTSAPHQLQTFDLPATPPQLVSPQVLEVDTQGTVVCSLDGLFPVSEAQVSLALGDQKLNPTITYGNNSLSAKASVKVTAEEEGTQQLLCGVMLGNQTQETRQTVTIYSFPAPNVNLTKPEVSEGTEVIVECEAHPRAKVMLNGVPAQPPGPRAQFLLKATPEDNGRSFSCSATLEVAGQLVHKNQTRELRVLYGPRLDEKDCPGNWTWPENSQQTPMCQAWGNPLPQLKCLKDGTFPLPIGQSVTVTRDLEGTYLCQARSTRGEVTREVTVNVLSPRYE
Experiment: SPR (Biacore 8K), antibody captured, antigen injected
Property label: koff

Below: 2 binders and their reported koff.
- Binder: "Anti-ICAM1 G12 (antibody, human IgG1, lambda, V domains shown, Human IgG1 with a lambda light chain; also called anti-ICAM1 clone G12) VH: QVQLQESGGGLVQPGGSLRLSCAASGFTFSSYAMSWVRQAPGKGLEWVSAISGSGGSTYYADSVKGRFTISRDNSKNTLYLQMSSLRAEDTAFYYCANSAYTGGWYDYWGHGTLVTVSS VL: ASELTQDPAVSVALGQTVKITCQGDSLRTYYASWYQQRPGQAPVLVIYGENSRPSGIPDRFSGSSSGNTASLTITGAQAEDEADYYCNSRDSSGNHLRVFGGGTKLTVLG"
  koff: "0.0224 s⁻¹"
- Binder: "16E4 (antibody, human IgG1, kappa, V domains shown, Rabbit-human chimeric anti-ICAM1: rabbit VH and VL on human IgG1 and kappa constant regions) VH: QSVEESGGRLVTPGTPLTLTCTVSGFSLSSHAMGWVRQAPGKGLQYIGIIGSSGSTYYASWAKGRFTISKTSTTVDLRLTSPTTEDTATYFCVRDPYDSFGDAYRLWGPGTLVTVSS VL: AYDMTQTPASVEVAVGGTVTIKCQASQSIYSYCSWYQQKPGQRPKFLIYDASKLASGVPSRFKGSGSGTEFTLTISGMQSDDAATYYCQQAYSSSNVDNAFGGGTEVVVKR"
  koff: "0.000277 s⁻¹"

Field: next binder
Documented koff of 8E5 (antibody, human IgG1, kappa, V domains shown, Rabbit-human chimeric anti-ICAM1: rabbit VH and VL on human IgG1 and kappa constant regions) VH: QSLEESGGRLVTPGTPLTLTCTVSGFSLSNYAMNWVRQAPGKGLEWIGYISTRGSAYYASWAKGRFTISKTSTTVDLKMTSPTTEDTATYFCARGDLVGGGYIRGSFDPWGPGTLVTVSS VL: AQVLTQTPSPVSAAVGGTVTINCQSSQSVVSDKLLSWFQQKPGQPPKLLIYGASTLASGVPSRFKGSGSGTQFTLTISDVQSDDAATYYCAGAYSTDSDIRAFGGGTEVVVKR : 0.00189 s⁻¹
